Molecular target: tetanus neurotoxin (TeNT), authentic tetanus holotoxin (Clostridium tetani, UniProt P04958 2-1315)
Sequence (P04958 2-457 limits assumed, chain 1 of 2): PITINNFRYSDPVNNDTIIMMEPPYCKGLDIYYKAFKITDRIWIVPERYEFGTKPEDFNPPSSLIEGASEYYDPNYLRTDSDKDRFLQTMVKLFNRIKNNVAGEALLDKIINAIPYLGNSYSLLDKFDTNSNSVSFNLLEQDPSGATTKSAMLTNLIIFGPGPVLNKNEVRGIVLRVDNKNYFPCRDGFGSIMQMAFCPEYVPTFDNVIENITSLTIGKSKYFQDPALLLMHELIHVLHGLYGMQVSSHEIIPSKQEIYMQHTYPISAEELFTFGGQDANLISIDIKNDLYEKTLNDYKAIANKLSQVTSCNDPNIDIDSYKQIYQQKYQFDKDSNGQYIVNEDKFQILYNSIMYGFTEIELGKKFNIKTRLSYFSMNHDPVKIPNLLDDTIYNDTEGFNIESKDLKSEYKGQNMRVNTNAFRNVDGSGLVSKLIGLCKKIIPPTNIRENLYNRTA
Sequence (P04958 458-1315 limits assumed, chain 2 of 2): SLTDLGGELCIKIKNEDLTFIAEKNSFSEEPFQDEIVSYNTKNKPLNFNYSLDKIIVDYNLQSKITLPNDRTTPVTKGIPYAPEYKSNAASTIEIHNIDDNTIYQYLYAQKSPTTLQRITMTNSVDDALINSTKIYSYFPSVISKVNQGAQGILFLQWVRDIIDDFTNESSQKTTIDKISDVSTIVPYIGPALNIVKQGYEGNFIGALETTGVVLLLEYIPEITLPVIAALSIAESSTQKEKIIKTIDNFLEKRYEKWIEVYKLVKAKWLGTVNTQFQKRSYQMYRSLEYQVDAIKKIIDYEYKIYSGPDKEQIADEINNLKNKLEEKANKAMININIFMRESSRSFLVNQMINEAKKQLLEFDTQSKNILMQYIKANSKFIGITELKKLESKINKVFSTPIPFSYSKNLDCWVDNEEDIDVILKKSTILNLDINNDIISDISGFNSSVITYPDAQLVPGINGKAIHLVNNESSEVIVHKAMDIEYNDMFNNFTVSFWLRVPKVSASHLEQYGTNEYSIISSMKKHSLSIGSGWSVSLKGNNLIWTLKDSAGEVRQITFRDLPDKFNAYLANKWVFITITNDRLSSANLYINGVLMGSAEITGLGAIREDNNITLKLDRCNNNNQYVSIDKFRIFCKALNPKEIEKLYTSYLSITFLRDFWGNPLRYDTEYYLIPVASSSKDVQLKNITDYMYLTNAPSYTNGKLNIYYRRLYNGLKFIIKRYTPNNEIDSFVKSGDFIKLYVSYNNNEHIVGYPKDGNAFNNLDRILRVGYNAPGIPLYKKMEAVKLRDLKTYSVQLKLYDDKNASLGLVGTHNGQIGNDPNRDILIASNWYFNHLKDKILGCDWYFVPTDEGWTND
Assay: competition ELISA on TeNT, binder biotinylated; competitor mAb 11n185; note: test concentration or dose not given here
reported_metric: % inhibition of binding

The examples below pair each entry with its known result.
SVT08L (VHH) VHH: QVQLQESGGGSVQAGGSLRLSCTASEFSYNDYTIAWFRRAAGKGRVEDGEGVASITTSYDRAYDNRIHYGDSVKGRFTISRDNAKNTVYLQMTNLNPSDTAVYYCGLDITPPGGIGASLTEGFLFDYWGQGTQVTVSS    4%
SVT15L-3FW4M (VHH) VHH: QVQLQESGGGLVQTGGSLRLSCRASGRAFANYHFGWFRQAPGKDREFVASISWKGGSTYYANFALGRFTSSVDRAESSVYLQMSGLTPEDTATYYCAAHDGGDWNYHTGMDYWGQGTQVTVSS    -1%
SVT15L (VHH) VHH: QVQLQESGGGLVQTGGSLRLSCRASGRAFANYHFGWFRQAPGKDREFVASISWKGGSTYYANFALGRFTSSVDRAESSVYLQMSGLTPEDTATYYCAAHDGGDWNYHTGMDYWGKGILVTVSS    0%
SVT02L (VHH) VHH: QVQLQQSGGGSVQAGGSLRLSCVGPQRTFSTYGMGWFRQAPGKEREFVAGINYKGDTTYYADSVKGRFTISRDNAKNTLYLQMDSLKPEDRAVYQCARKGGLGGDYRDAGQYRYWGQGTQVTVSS    19%
SVT03L (VHH) VHH: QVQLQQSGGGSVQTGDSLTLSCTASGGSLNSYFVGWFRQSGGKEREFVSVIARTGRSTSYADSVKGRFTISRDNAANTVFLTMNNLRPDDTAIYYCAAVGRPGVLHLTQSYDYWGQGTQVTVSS    -26%

Now for a further binder.
Entry SVT34L (VHH) VHH: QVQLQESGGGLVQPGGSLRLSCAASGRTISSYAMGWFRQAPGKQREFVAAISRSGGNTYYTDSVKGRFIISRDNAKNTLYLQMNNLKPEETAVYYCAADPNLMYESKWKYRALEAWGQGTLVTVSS ; % inhibition of binding = 2%
